B1: Pre-mRNA-processing factor 40 homolog B, residues 274 to 332; numbered along this chain, Q6NWY9 (parent)
chain: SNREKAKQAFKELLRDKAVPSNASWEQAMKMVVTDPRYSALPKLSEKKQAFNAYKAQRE

- Variants of: B1
- method.notes: abundance fitness (aPCA) (normalised: wild type 0, dead -1); higher = more abundant; growth selection in yeast, the domain comes from the species named
- condition.label: Homo sapiens
Would you kindly list abundance fitness for each of these variants?
Numbers only.

Past entries and their recorded results:
1. P20T ... -0.421
2. D35Y ... -1.38
3. K30F ... -0.76
4. P20G ... -0.391
5. S1E ... -0.206
6. E12D ... -0.152

Please state abundance fitness for every variant in the list that follows.
1. N2G
2. A28I

**Result**
-0.207
-0.595

Please state abundance fitness for every variant in the list that follows.
1. A53N
2. N2I
3. W25Y
4. V33D
5. N2S
6. L14A

**Result**
1: -0.079; 2: -0.46; 3: -0.18; 4: 0.006; 5: -0.208; 6: -0.452

Hello, the source for this data is the Human Domainome abundance scans (Beltran et al. 2025), in case you need it.
